biological target: Geranylgeranyl transferase type I (Homo sapiens, UniProt P49354+P53609); experiment: Inhibition of geranylgeranylation of P21rap in human PC-3 prostate cancer cells
Measured IC50 values are reported for all entries that follow.

{"SMILES STRUCTURE": "CCOP(=O)(O)CC(=O)NOC/C=C(\\C)CC/C=C(\\C)CC/C=C(\\C)CCC=C(C)C", "TEST SYSTEM": "Geranylgeranyl transferase type I (Homo sapiens, UniProt P49354+P53609)", "VALUE UNITS": "µM", "IC50": 40.2}
{"SMILES STRUCTURE": "CC(C)=CCC/C(C)=C/CC/C(C)=C/CC/C(C)=C/COC(=O)NS(N)(=O)=O", "TEST SYSTEM": "Geranylgeranyl transferase type I (Homo sapiens, UniProt P49354+P53609)", "VALUE UNITS": "µM", "IC50": 28.2}

Hello, the source for this data is ChEMBL document CHEMBL1129532, in case you need it.
